Tested on: HS 578T breast
Test: NCI-60 one-dose screen, 48 h (100 = growth as untreated, 0 = no growth, -100 = all killed)
Details: 10 µM unless noted
The panel holds about 83,000 compounds, 20% with a hit somewhere; the sample as a whole holds those more often.
Here the recorded growth is given for each entry.
Return type: number; implicit unit %.

Worked set:
>  <TEST_SMILES>
O=C1/C(=C/c2ccccc2[N+](=O)[O-])Oc2ccc(O)cc21

>  <UNIT_OF_MEASUREMENT>
%

>  <growth>
53.6

$$$$
>  <TEST_SMILES>
CC(=O)Nc1ccc(C)c(Nc2cc(-c3ccc(-n4cccn4)cc3)[nH]n2)c1

>  <UNIT_OF_MEASUREMENT>
%

>  <growth>
42.3

$$$$
>  <TEST_SMILES>
C=C1C(=O)O[C@@H]2/C=C(/C)C3=CC(=O)[C@@](C)(C[C@H](OC(=O)/C(C)=C\C)[C@@H]12)O3

>  <UNIT_OF_MEASUREMENT>
%

>  <growth>
46.5

$$$$
>  <TEST_SMILES>
O=C1[C@@H]2Cc3c([nH]c4ccccc34)[C@H](c3c(Cl)cccc3Cl)N2C(=O)CN1C1CCN(Cc2ccccc2)CC1

>  <UNIT_OF_MEASUREMENT>
%

>  <growth>
28.5

$$$$

Entry Oc1ccc(CSc2nnc(-c3ccncc3)n2-c2ccccc2)c2cccnc12 has what growth?
15.4

Entry CCOC(=O)c1c(NC(=O)c2cccc(C(F)(F)F)c2)sc2c(CN3CCN(C)CC3)c(O)ccc12 has what growth?
76.3

Entry Cn1nc(Nc2ccccc2)c(C(=O)NN)c1N has what growth?
99.7

Entry CC(C)C(=O)Nc1ccc(-c2nc(-c3cccc(O)c3)c(-c3ccnc(Br)c3)[nH]2)cc1 has what growth?
-12

Entry Cc1[nH]nc2ccc(-c3nc4cnc(N5CCN(C)CC5)cn4c3Nc3ccc(F)cc3Br)cc12 has what growth?
91.5

Entry NS(=O)(=O)c1ccc(-n2cc(CC=O)nn2)cc1 has what growth?
104

Entry O=C1CSC(=O)N1Cc1cc2ccccc2nc1Cl has what growth?
97.1

Entry O=C(CSc1nnc(-c2ccc(Cl)cc2)n1-c1ccccc1)Nc1ccc(F)cc1 has what growth?
61.4

Entry COc1cc2c3c(n(CCCN4CCCCC4)c(=O)c2cc1OC)-c1cc2c(cc1C3=O)OCO2 has what growth?
-51.2

Entry O=c1c2c(O)cccc2oc2c3c(cc(O)c12)O[C@H]1OC=C[C@@H]31 has what growth?
94.9
